# credit: ChEMBL document CHEMBL1201862

System: MDA-MB-435
assayComment: NCI tumour cell line growth inhibition, 48 h
Active and inactive are the calls of the source. Rule as the data show it: active = GI50 up to about 1.1 µM and inactive = higher.
Catalogue of GI50 values
endpoint: GI50

>>> result("COc1cc(Cc2cnc(N)nc2N)cc(OC)c1OCCCNc1ccc([N+](=O)[O-])cc1")
"13.8 µM (inactive)"
>>> result("CC12CCC(C(=O)OC1=O)C(C)(C)O2 (stereo not drawn)")
"> 100 µM (inactive)"
>>> result("CCN(CC)c1ccc2cc(C(N)=O)c(=N)oc2c1")
"30.9 µM (inactive)"
>>> result("Cc1ccc(C(=O)N/N=C(\\N=N\\c2cccc([N+](=O)[O-])c2)c2ccc(N(C)C)cc2)cc1")
"24.9 µM (inactive)"
>>> result("O=C1C[S+]([O-])C23c4cc5ccccc5n4CCC2CCCN13 (stereo not drawn)")
"> 100 µM (inactive)"
>>> result("Cc1cc(C)c(-n2c(-c3ccc(Br)cc3)cs/c2=N\\N=C2C=C(C(C)(C)C)C(=O)C(C(C)(C)C)=C2)c(C)c1")
"> 100 µM (inactive)"
>>> result("O=C(c1ccco1)N(C(=O)N1CCN(c2ccccc2)CC1)S(=O)(=O)c1ccccc1")
"23.3 µM (inactive)"
>>> result("COC(=O)C[C@@H]1C(C)(C)[C@@H]2O[C@@]34C[C@@H]2C(=O)[C@]1(C)[C@H]3CC[C@@]1(C)[C@H](c2ccoc2)OC(=O)C[C@]14O")
"> 100 µM (inactive)"

----------
Entries and their GI50 values follow.
Test system: DU-145
assayComment: NCI tumour cell line growth inhibition, 48 h
Activity calls are given as the source filed them. No stated cut-off is given here; in the data, active = GI50 up to about 1.1 µM and inactive = higher.
endpoint: GI50

>>> result("O=c1c(C(c2ccc3ccccc3c2)c2c(O)oc3ccccc3c2=O)c(O)oc2ccccc12")
"40.7 µM (inactive)"
>>> result("C1CSC[C@H]2COC[C@@H](CSCCS1)S2")
"> 100 µM (inactive)"
>>> result("BrCC[N+]12CC[N+](CCBr)(CC1)C2")
"> 100 µM (inactive)"
>>> result("Clc1cc(OC2C3CC4CC(C3)CC2C4)nc(Cl)n1 (stereo not given)")
"19 µM (inactive)"
>>> result("COc1ccc(C(=O)Cn2c(C(=O)/C=C/c3ccco3)nc3ccccc32)cc1")
"38.5 µM (inactive)"
>>> result("O=S1(=O)N=C(NCc2c[nH]c3ccccc23)N(c2ccccc2)c2ccncc21")
"> 100 µM (inactive)"
>>> result("Nc1sccc1S(=O)(=O)c1ccsc1N")
"> 100 µM (inactive)"
>>> result("CCOC(=O)C1=CN=C2C(=O)N(c3ccccc3)N(C)C2(C)C1=N (stereo not given)")
"> 100 µM (inactive)"
>>> result("Cc1cc2c(cc1-c1cc3c(cc1C)C(C(C)C)=C(O)C(=O)/C3=C\\NCC1CCCN3CCCCC13)/C(=C/NCC1CCCN3CCCCC13)C(=O)C(O)=C2C(C)C (stereo not given)")
"11 µM (inactive)"
>>> result("N#Cc1c(N2CCC(O)C2)c2ccccc2n2c1nc1ccccc12 (stereo not given)")
"> 100 µM (inactive)"

----------
Tested on: IGROV-1
assayComment: NCI tumour cell line growth inhibition, 48 h
Active and inactive are the calls of the source. Rule as the data show it: active = GI50 up to about 1.1 µM and inactive = higher.
Labels: 1 = active, -1 = inactive

>>> categorylabel("CCOC(=O)C1C=C1C(C)(C)O (centres undefined)")
-1
>>> categorylabel("COC(=O)CCCC(=O)NC1=C(Nc2ccccc2)C(=O)c2ccccc2C1=O")
-1
>>> categorylabel("N#Cc1c(N2CCC(O)C2)c2ccccc2n2c1nc1ccccc12 (centres undefined)")
-1
>>> categorylabel("CC1[C@@]2(O[C@@H]3C=C4C5CCC6Cc7nc8c(nc7C[C@@]6(C)C5C[C@H](O)[C@@]4(C)[C@]13O)CC1CCc3c(cc4c5c3C(O)C[C@H]5[C@@H](C)C3(O4)OC(C)(C)CC3O)[C@]1(C)C8)O[C@@](C)(CO)C[C@@H]2O (some centres undefined)")
1
>>> categorylabel("CO[C@H]1CC[C@]2(C)C3=CC[C@@]4(C)C(CC[C@@H]4C(C)CC[C@@H](C)C(C)C)C(=CCC2C1)O3 (some centres undefined)")
-1
>>> categorylabel("CCOC(=O)/C(I)=C/c1cc(OC)c(OC)c(OC)c1")
-1
>>> categorylabel("C#CCn1c(=O)c2cc(OC)c(OC)cc2n(CC#C)c1=O")
-1
>>> categorylabel("O=C(NN1C(=O)C(Cl)C1c1ccc(O)cc1)c1ccccc1O (centres undefined)")
-1
>>> categorylabel("N=c1oc2ccccc2cc1C(=O)NC12CC3CC(CC(C3)C1)C2")
-1
